For each entry below, report its IC50 value.
- target_or_test_system: SARS2 protease (Severe acute respiratory syndrome coronavirus 2, UniProt P0DTD1)
- procedure_summary: SARS-CoV-2 protease inhibition assay (SARS2 FRET protease assay)
- Assay type: biochemical
- applied_conditions: SARS-CoV-2 protease 25 nM, FRET, peptide substrate 1.3 μM, 30 minutes at 30° C., compounds 20 μM to 1.0 nM; read-out: IC50

Query: Reported IC50 for `CCCCCCCOC(=O)N[C@@H](CC1CCCCC1)C(=O)N[C@H](C=O)CCC(=O)N1CCOc2ccccc2C1` : what is it?
Response: > 200 µM

Query: What about this compound? CC(C)(C)OC(=O)N1CCN(C(=O)CC[C@@H](C=O)NC(=O)[C@H](CC2CCCCC2)NC(=O)OCc2cccc(Cl)c2)CC1c1ccccc1 (some centres unmarked)
Response: > 200 µM

Query: What about this compound? CC(C)C[C@H](NC(=O)OC(Cc1ccccc1)c1ccccc1)C(=O)N[C@@H](C[C@@H]1CCNC1=O)C(=O)C(=O)N1CCN(C(=O)OC(C)(C)C)CC1 (some centres unmarked)
Response: > 20 µM

Query: What about this compound? `COc1cccc(CC2(OC(=O)N[C@@H](CC(C)C)C(=O)N[C@@H](C[C@@H]3CCNC3=O)C(=O)C(N)=O)CC2)c1`
Response: > 20 µM

Query: What about this compound? CCOP(=O)(OCC)C(O)[C@H](CCC(=O)N1CCNCc2ccccc21)NC(=O)[C@H](CC1CCCCC1)NC(=O)OCc1cccc(Cl)c1 (some centres unmarked)
Response: > 200 µM
